assay: AUC (0 to 24 hrs) in Sprague-Dawley rat at 10 mg/kg, iv measured upto 24 hrs by LC-MS/MS analysis; assay type: ADME, organism-based; parameters: route intravenous, dose 10 mg/kg, time <=24; settings: in vivo
QUANTITY_KIND: AUC(0-t) (ng·h/mL)

NC(=O)c1sc(-c2ccnc(NC(=O)C3CC3)c2)nc1OCC1CCN(Cc2ccccc2)CC1; 1540

----------
assay: Cmax in Sprague-Dawley rat at 10 mg/kg, iv measured upto 24 hrs by LC-MS/MS analysis; type: ADME, organism-based; set-up: route intravenous, dose 10 mg/kg, time <=24; conditions: in vivo
QUANTITY_KIND: Cmax (ng/mL)

NC(=O)c1sc(-c2ccnc(NC(=O)C3CC3)c2)nc1OCC1CCN(Cc2ccccc2)CC1; 507

----------
target: Mitogen-activated protein kinase 9 (Homo sapiens); assay: Inhibition of JNK2 (unknown origin) by ATP competitive based analysis
Sequence (P45984 whole entry): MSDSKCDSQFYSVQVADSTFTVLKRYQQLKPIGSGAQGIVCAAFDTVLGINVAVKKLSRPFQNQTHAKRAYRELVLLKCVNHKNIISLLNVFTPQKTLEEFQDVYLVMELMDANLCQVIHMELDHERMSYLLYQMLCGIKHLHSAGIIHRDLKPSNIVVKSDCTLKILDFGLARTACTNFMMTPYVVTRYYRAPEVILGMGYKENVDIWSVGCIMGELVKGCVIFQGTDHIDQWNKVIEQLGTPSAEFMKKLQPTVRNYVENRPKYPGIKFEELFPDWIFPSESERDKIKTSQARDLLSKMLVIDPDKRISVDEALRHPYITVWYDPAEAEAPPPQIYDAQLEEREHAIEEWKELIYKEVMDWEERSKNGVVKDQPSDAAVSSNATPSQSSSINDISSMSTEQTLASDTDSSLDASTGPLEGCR
pIC50: −log10 of the molar value.
QUANTITY_KIND: pIC50

NC(=O)c1sc(-c2ccnc(NC(=O)C3CC3)c2)nc1OCCCC1CCN(Cc2ccc(F)cc2)CC1; < 6.52

----------
Catalogue of clearance values
experiment: Clearance in Sprague-Dawley rat at 5 mg/kg, iv measured upto 24 hrs by LC-MS/MS analysis; assay type: ADME, organism-based; conditions: in vivo
QUANTITY_KIND: clearance (mL/min/kg)

NC(=O)c1sc(-c2ccnc(NC(=O)C3CC3)c2)nc1OCCCC1CCN(Cc2ccccc2)CC1; 50.1
NC(=O)c1sc(-c2ccnc(NC(=O)C3CC3)c2)nc1OCCCC1CCN(Cc2ccc(F)cc2)CC1; 42.5

----------
Let's look at some compounds and their measured IC50.
biological target: Acetylcholinesterase (Homo sapiens, UniProt P22303); test: Inhibition of human recombinant AChE expressed in HEK293 cells using acetylthiocholine iodide as substrate incubated for 10 mins by Ellman's method
Sequence (P22303 whole entry): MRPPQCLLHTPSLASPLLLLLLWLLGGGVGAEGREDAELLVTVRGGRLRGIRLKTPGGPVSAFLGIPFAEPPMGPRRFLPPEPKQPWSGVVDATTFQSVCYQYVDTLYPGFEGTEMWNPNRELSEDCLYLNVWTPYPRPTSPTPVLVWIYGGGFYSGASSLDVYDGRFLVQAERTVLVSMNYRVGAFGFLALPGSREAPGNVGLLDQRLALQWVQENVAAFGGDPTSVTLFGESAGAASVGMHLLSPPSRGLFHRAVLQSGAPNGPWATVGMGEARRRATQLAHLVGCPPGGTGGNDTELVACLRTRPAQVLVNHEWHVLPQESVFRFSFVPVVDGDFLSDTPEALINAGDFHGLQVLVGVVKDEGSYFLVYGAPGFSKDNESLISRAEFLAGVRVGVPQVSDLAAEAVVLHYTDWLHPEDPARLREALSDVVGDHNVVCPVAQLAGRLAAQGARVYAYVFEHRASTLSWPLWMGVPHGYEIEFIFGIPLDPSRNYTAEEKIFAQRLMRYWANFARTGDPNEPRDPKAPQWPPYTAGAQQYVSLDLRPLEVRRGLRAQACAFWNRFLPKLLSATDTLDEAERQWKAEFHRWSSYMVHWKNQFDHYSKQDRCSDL
QUANTITY_KIND: IC50

CNC(=O)c1sc(-c2ccnc(NC(=O)C3CC3)c2)nc1OCC1CCN(Cc2cccc([N+](=O)[O-])c2)CC1; 6 µM
NC(=O)c1sc(-c2ccnc(NC(=O)C3CC3)c2)nc1OCCC1CCN(Cc2ccc(F)c(F)c2)CC1; 42.8 µM
NC(=O)c1sc(-c2ccnc(NC(=O)C3CC3)c2)nc1OCCCC1CCN(Cc2ccc(F)cc2)CC1; 0.31 µM
CNC(=O)c1sc(-c2ccnc(NC(=O)C3CC3)c2)nc1OCC1CCN(Cc2ccccc2F)CC1; 9 µM
NC(=O)c1sc(-c2ccnc(NC(=O)C3CC3)c2)nc1OCCC1CCN(Cc2ccccc2F)CC1; 7.8 µM
CNC(=O)c1sc(-c2ccnc(NC(=O)C3CC3)c2)nc1OCC1CCN(Cc2ccc(Cl)cc2)CC1; 82 µM
CNC(=O)c1sc(-c2ccnc(NC(=O)C3CC3)c2)nc1OCC1CCN(Cc2ccccc2)CC1; 8 µM
CNC(=O)c1sc(-c2ccnc(NC(=O)C3CC3)c2)nc1OC1CCN(Cc2ccccc2)CC1; 73 µM
NC(=O)c1sc(-c2ccnc(NC(=O)C3CC3)c2)nc1OCCC1CCN(Cc2ccccc2Cl)CC1; 3.7 µM
NC(=O)c1sc(-c2ccnc(NC(=O)C3CC3)c2)nc1OCCC1CCN(Cc2ccccc2)CC1; 0.73 µM
NC(=O)c1sc(-c2ccnc(NC(=O)C3CC3)c2)nc1OCCCC1CCN(Cc2ccccc2F)CC1; 1.32 µM
CNC(=O)c1sc(-c2ccnc(NC(=O)C3CC3)c2)nc1OCC1CCN(Cc2cccc(Br)c2)CC1; 394 µM
CNC(=O)c1sc(-c2ccnc(NC(=O)C3CC3)c2)nc1OCC1CCN(Cc2ccc(Cl)c(Cl)c2)CC1; 97 µM
NC(=O)c1sc(-c2ccnc(NC(=O)C3CC3)c2)nc1OCCC1CCN(Cc2ccccn2)CC1; 6.6 µM
NC(=O)c1sc(-c2ccnc(NC(=O)C3CC3)c2)nc1OCCCC1CCN(Cc2ccccc2)CC1; 0.38 µM
NC(=O)c1sc(-c2ccnc(NC(=O)C3CC3)c2)nc1OCCC1CCN(Cc2ccc(F)cc2)CC1; 4.5 µM
CNC(=O)c1sc(-c2ccnc(NC(=O)C3CC3)c2)nc1OCC1CCN(Cc2ccc(Br)cc2)CC1; > 1000 µM
NC(=O)c1sc(-c2ccnc(NC(=O)C3CC3)c2)nc1OCCC1CCN(Cc2cccc(F)c2)CC1; 4.7 µM

Values compiled from ChEMBL document CHEMBL4680314.
